Assign TGI to each entry below.
Tested on: DU-145 prostate
method notes: NCI tumour cell line growth inhibition, 48 h

Task: Bench note: what TGI did "COC(=O)c1ccc2c(c1)sc1nc(-c3ccc(OC)cc3)cn12" show?
Result: > 100 µM

Task: Bench note: what TGI did "CCOC(=O)N/N=C(\CC)OCC" show?
Result: > 100 µM

Task: Bench note: what TGI did "O=c1[nH]c2c(c(=O)[nH]1)C(c1ccc([N+](=O)[O-])cc1)c1c([nH]c(=O)[nH]c1=O)O2" show?
Result: > 100 µM

Task: Bench note: what TGI did C[N+]12C=CC=C1C(N1CCCC1)c1scc(-c3ccc(F)cc3)c12 (centres undefined) show?
Result: > 100 µM

---

Test system: SK-MEL-28 melanoma
method notes: NCI tumour cell line growth inhibition, 48 h; in the data active = GI50 below about 0.43 µM; inactive = the rest
Hello, when you answer, please use one of the following outcomes: y = active, n = inactive

Task: What outcome does the record of this test show for "COc1cc(CCNC(=O)OC(C)(C)C)c2c(c1OC)SSSSS2" ?
Result: n

Task: What outcome does the record of this test show for "Cn1cc(C2=C(c3cn(CCCCCO)c4ccccc34)C(=O)NC2=O)c2ccccc21" ?
Result: n

Task: What outcome does the record of this test show for "CNC(=O)c1cccc(C#Cc2cncnc2Nc2ccc(OCc3cccc(F)c3)c(Cl)c2)c1" ?
Result: n

Task: What outcome does the record of this test show for "Oc1ccccc1/C=N\NC(=S)N/N=C/c1ccccc1O" ?
Result: n

Task: What outcome does the record of this test show for "CCCN(CCC)c1ccc(C=O)c(C)c1" ?
Result: n

Task: What outcome does the record of this test show for "CN(C)CCS(=O)(=O)Nc1cc(-c2ccc3ncc(C#N)c(Nc4ccc(F)c(Cl)c4)c3c2)cnc1Cl" ?
Result: y

Task: What outcome does the record of this test show for Cc1ccsc1-c1ccc2c(c1)COC2(CCCN(C)C)c1ccc(F)cc1 (centres undefined) ?
Result: n

Task: What outcome does the record of this test show for "CC(C)(C)c1cc(-c2nc3ccc(N4CCN(CCO)CC4)cc3[nH]2)cc(C(C)(C)C)c1O" ?
Result: n

Task: What outcome does the record of this test show for [Cu+2].[NH-]C(CC(=O)O)C(=O)O.[NH-]C(CC(=O)O)C(=O)O (centres undefined) ?
Result: n

---

Assign TGI to each entry below.
Tested on: NCI-H226 lung
method notes: NCI tumour cell line growth inhibition, 48 h
Enter your answer as a number in µM; do not include the unit.

Task: Bench note: what TGI did "Nc1cc(Cl)ccc1SSc1ccc(Cl)cc1N" show?
Result: 15.4

Task: Bench note: what TGI did "Cc1ccc(Sc2ccccc2N)cc1" show?
Result: 66.4

Task: Bench note: what TGI did COc1cc(C2CC(=O)Nc3c2c(C)nn3-c2nc3ccccc3[nH]2)cc(OC)c1O (stereo not drawn) show?
Result: 7.16

Task: Bench note: what TGI did "CC(C)OP(=O)(OC(C)C)C(=NCCN=C(NNc1ccccc1[N+](=O)[O-])P(=O)(OC(C)C)OC(C)C)NNc1ccccc1[N+](=O)[O-]" show?
Result: 67.4

Task: Bench note: what TGI did "COc1ccc2c(c1)CCCc1c-2nc2ccccc2c1N" show?
Result: 28.4

Task: Bench note: what TGI did "CC/C=C\C[C@H](O)C/C=C1/C(=O)C=C[C@@H]1C/C=C\CCCCO" show?
Result: 4.76

Task: Bench note: what TGI did CC(C)Cc1ccc(C(C)C(=O)NCc2ccc(Cn3c(=O)sn(CCCI)c3=O)cc2)cc1 (stereo not drawn) show?
Result: 2.32

Task: Bench note: what TGI did "CCOc1cccc(-c2cc(=O)c3cc4c(cc3[nH]2)OCO4)c1" show?
Result: 15.1

Task: Bench note: what TGI did "O=C([CH-]C(=O)c1ccccc1)c1ccccc1.O=C([CH-]C(=O)c1ccccc1)c1ccccc1.O=C([CH-]C(=O)c1ccccc1)c1ccccc1.[Cl-].[Hf+4]" show?
Result: 54

Task: Bench note: what TGI did O=C1CC(N2C(=O)/C(=C/C(Cl)=C\c3ccc([N+](=O)[O-])cc3)SC2=S)C(=O)N1c1ccc(O)cc1 (stereo not drawn) show?
Result: 6.82

Task: Bench note: what TGI did "NC(N)=Nc1ccc(/C=C2\C=Cc3ccccc32)cc1" show?
Result: 31.1

Task: Bench note: what TGI did CCOC(=O)C12CC(C)=C(C)CC1CCCc1ccccc12 (stereo not drawn) show?
Result: 56

Task: Bench note: what TGI did "O=C1C=C(c2ccccc2)O/C1=C\C(=O)c1ccc(Cl)cc1" show?
Result: 44.5

Task: Bench note: what TGI did CCCC[C@H]1C(=O)O[C@H](C)[C@H](NC(=O)c2cccc(NC=O)c2OC)C(=O)O[C@@H](C)[C@@H]1OC(=O)CC(C)C (tested in a mixture with another compound) show?
Result: 35

Task: Bench note: what TGI did "CC(=O)OCCCC#CC#Cc1cccc(=O)o1" show?
Result: 52.8

Task: Bench note: what TGI did "O=S(=O)(NCCCNc1cc(-c2cn(-c3ccccc3)nc2-c2cccc(O)c2)ccn1)c1ccc(Br)cc1" show?
Result: 8.66

Task: Bench note: what TGI did Cc1ccsc1-c1ccc2c(c1)COC2(CCCN(C)C)c1ccc(F)cc1 (stereo not drawn) show?
Result: 25.3

Task: Bench note: what TGI did "O=C1/C(=C/c2ccc(O)c(O)c2)CC/C1=C\c1ccc(O)c(O)c1" show?
Result: 25.8

---

Tested on: CCRF-CEM leukemia
method notes: NCI tumour cell line growth inhibition, 48 h; in the data active = GI50 below about 0.43 µM; inactive = the rest
Hello, when you answer, please use one of the following outcomes: active, inactive

Task: What outcome does the record of this test show for "C=CCOC(=O)Nc1cccn([C@H](CC(C)C)C(=O)NCCC(C)C)c1=O" ?
Result: inactive

Task: What outcome does the record of this test show for Cc1ccsc1-c1ccc2c(c1)COC2(CCCN(C)C)c1ccc(F)cc1 (stereo not given) ?
Result: inactive

Task: What outcome does the record of this test show for "NC(N)=Nc1ccc(/C=C2\C=Cc3ccccc32)cc1" ?
Result: inactive

Task: What outcome does the record of this test show for [Cu+2].[NH-]C(CC(=O)O)C(=O)O.[NH-]C(CC(=O)O)C(=O)O (stereo not given) ?
Result: inactive

Task: What outcome does the record of this test show for CC(C)Cc1ccc(C(C)C(=O)NCc2ccc(Cn3c(=O)sn(CCCI)c3=O)cc2)cc1 (stereo not given) ?
Result: active

Task: What outcome does the record of this test show for Cc1ccccc1C(C(=O)NC1CCCCC1)N(C(=O)CNc1ccc(C#N)cc1)c1cccc(F)c1 (stereo not given) ?
Result: inactive

Task: What outcome does the record of this test show for "COc1ccc(-c2[nH]nc(N)c2-c2cc(OC)c(OC)c(OC)c2)cc1" ?
Result: active

Task: What outcome does the record of this test show for "O=C(O)c1cn(C2CC2)c2cc(N3CCN(Cc4c(O)ccc5ccccc45)CC3)c(F)cc2c1=O" ?
Result: inactive

Task: What outcome does the record of this test show for "CC(C)C(=O)c1c(C(F)(F)F)n([O-])c2ccccc2[n+]1=O" ?
Result: inactive

Task: What outcome does the record of this test show for "O=C1NC(=NCCc2ccccn2)S/C1=C\c1ccc2ncccc2c1" ?
Result: inactive

---

Test system: SNB-75 CNS
method notes: NCI tumour cell line growth inhibition, 48 h
Would you mind labelling by TGI? At or over 20 µM is met, under is not met.

Task: Hello, I need to know if "O=[N+]([O-])C=C1c2ccccc2-c2ccccc21" has measured TGI not below 20 µM. Thanks!
Result: met

Task: Hello, I need to know if COc1cc(C2OC[C@@H]3C(=O)OC[C@H]23)cc(O)c1OC (stereo partly drawn) has measured TGI not below 20 µM. Thanks!
Result: met

Task: Hello, I need to know if "CCCc1cn2c(/C=N/N=C(N)N)c(-c3ccc(Cl)c([N+](=O)[O-])c3)nc2s1" has measured TGI not below 20 µM. Thanks!
Result: not met

Task: Hello, I need to know if "CCOC(=O)C1(N)CC1" has measured TGI not below 20 µM. Thanks!
Result: met

Task: Hello, I need to know if CCCC[C@H]1C(=O)O[C@H](C)[C@H](NC(=O)c2cccc(NC=O)c2OC)C(=O)O[C@@H](C)[C@@H]1OC(=O)CC(C)C (tested in a mixture with another compound) has measured TGI not below 20 µM. Thanks!
Result: not met

Task: Hello, I need to know if "Cc1ccsc1C(=S)Nc1ccc(Cl)c(/C=N/OC(C)C)c1" has measured TGI not below 20 µM. Thanks!
Result: met

Task: Hello, I need to know if "O=C1C(c2ccccc2)=C(c2ccccc2)C(c2ccc(Sc3ccc(C4=C(c5ccccc5)C(=O)C(c5ccccc5)=C4c4ccccc4)cc3)cc2)=C1c1ccccc1" has measured TGI not below 20 µM. Thanks!
Result: met

Task: Hello, I need to know if "CC(C)(C)n1c(=O)n2n(c1=O)C1c3cccc4cccc(c34)C2C2c3cccc4cccc(c34)C1n1c(=O)n(C(C)(C)C)c(=O)n12" has measured TGI not below 20 µM. Thanks!
Result: met

Task: Hello, I need to know if "COC(=O)c1ccc2c(c1)sc1nc(-c3ccc(OC)cc3)cn12" has measured TGI not below 20 µM. Thanks!
Result: met

Task: Hello, I need to know if "NC(N)=NS(=O)(=O)c1ccc(NC(=O)c2cccc3c(N)c4ccccc4nc23)cc1" has measured TGI not below 20 µM. Thanks!
Result: met

Task: Hello, I need to know if "Cc1ccc(S(=O)(=O)OCCOCCOCCOCCOCCOS(=O)(=O)c2ccc(C)cc2)cc1" has measured TGI not below 20 µM. Thanks!
Result: met

Task: Hello, I need to know if CCCCCCCCCCOCCOCCOCCOCCCCC(O)CCCCCCCC1=C[C@H](C)OC1=O (stereo partly drawn) has measured TGI not below 20 µM. Thanks!
Result: met

Task: Hello, I need to know if "CCOC(=O)/C(=C\NC(C)(C)CO)c1nc2ccccc2[nH]1" has measured TGI not below 20 µM. Thanks!
Result: met

Task: Hello, I need to know if "Nc1ncn([C@H]2C[C@H](OP(=O)(O)OC[C@H]3O[C@@H](n4cnc5c(=O)[nH]c(N)nc54)C[C@@H]3O)[C@@H](CO)O2)c(=O)n1" has measured TGI not below 20 µM. Thanks!
Result: met

Task: Hello, I need to know if "CCN(CCO)CCNc1ccc(C)c2sc3ccccc3c(=O)c12" has measured TGI not below 20 µM. Thanks!
Result: not met

Task: Hello, I need to know if "Cc1cccc(Cl)c1NC(=O)c1cnc(Nc2cc(N3CCOCC3)cc(S(C)(=O)=O)c2)s1" has measured TGI not below 20 µM. Thanks!
Result: not met

Task: Hello, I need to know if CC(=O)Nc1cc2nc3n(c2cc1C)CCC3OC(C)=O (stereo not drawn) has measured TGI not below 20 µM. Thanks!
Result: met

Task: Hello, I need to know if "O=C(O)c1cn(C2CC2)c2cc(N3CCN(Cc4c(O)ccc5ccccc45)CC3)c(F)cc2c1=O" has measured TGI not below 20 µM. Thanks!
Result: not met

Values from PubChem BioAssay (NCI)
